IC50 values, listed per item
# target.desc: CDK9/CycT (Homo sapiens (Human), UniProt P50750)
# Sequence (P50750 whole entry): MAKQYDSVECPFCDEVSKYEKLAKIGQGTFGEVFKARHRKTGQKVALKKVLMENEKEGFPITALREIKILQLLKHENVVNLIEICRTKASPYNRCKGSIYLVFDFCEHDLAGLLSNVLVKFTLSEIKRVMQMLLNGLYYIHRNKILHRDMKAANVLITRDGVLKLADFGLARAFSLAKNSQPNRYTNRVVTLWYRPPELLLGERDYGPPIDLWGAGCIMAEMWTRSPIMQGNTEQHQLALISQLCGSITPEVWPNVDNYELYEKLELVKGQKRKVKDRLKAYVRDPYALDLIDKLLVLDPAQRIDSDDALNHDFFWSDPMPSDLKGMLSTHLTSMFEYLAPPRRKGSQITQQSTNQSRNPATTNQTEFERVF
# Sequence (O60563 whole entry partner): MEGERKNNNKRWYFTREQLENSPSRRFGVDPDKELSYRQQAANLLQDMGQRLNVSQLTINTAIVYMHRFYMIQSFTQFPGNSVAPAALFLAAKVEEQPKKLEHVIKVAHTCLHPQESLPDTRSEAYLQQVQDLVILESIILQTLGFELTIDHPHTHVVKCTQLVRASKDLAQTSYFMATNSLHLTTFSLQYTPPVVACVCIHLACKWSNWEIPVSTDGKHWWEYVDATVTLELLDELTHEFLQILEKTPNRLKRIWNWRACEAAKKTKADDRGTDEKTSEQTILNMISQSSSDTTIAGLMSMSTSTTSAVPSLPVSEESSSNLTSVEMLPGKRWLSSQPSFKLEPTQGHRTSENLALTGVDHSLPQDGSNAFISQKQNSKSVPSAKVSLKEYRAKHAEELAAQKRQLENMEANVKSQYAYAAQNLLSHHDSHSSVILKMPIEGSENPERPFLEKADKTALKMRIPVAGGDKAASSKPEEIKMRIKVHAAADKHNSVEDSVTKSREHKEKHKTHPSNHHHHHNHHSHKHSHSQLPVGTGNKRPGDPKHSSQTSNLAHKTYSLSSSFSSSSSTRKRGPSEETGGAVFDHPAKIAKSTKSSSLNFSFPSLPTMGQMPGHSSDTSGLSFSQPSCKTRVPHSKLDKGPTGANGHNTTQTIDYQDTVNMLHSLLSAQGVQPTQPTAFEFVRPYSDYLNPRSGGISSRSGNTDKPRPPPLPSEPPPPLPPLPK
# assay: LANCE Ultra kinase activity inhibition assay, CDK9/CycT
# Assay type: biochemical
# test.settings: ATP 10 μM, highest compound concentration 1 μM
Answer in µM, number only, no unit symbol.

Below, 5 molecules whose answers are already recorded.
INSERT INTO assay_data (molecule, unit_name, reported_value) VALUES
  ('C=Cc1cnn2c(N[C@H]3CC[C@H](N)C3)cc(C(C)C3CC3)nc12 (stereo partly shown)', 'µM', 0.024),
  ('Cc1cnn2c(N[C@H]3CC[C@H](N)C3)cc([C@H](C)C3CCC3)nc12 (single isomer, unassigned) [Compound Z-38-P2]', 'µM', 0.016),
  ('COC(c1cc(N[C@H]2CC[C@H](N)C2)n2nccc2n1)C1CC1 (stereo partly shown)', 'µM', 0.062),
  ('N[C@H]1CC[C@H](Nc2cc(C(F)(F)C3CC3)nc3ccnn23)C1', 'µM', 0.027),
  ('Cc1cnn2c(N[C@H]3CC[C@H](N)C3)cc(CC3CC3)nc12', 'µM', 0.032);

Supply recorded IC50 for CCC(c1cc(N[C@H]2CC[C@H](NC(C)=N)C2)n2nccc2n1)C1CC1 (stereo partly shown) here. 0.058

----------
Parameter: IC50. Scope: all listed entries.
# target.desc: CDK2/CycA (Homo sapiens (Human))
# assay: LANCE Ultra kinase activity inhibition assay, CDK2/CycA
# Assay type: biochemical
# test.settings: ATP 10 μM, highest compound concentration 10 μM

INSERT INTO assay_data (compound, quantity_kind, reported_value) VALUES
  ('COC(c1cc(N[C@H]2CC[C@H](N)C2)n2nccc2n1)C1CC1 (stereo partly shown)', 'IC50', '> 10 µM'),
  ('N[C@H]1CC[C@H](Nc2cc(C(F)C3CC3)nc3ccnn23)C1 (stereo partly shown)', 'IC50', '> 10 µM'),
  ('C=CC(C)(C)c1cc(N[C@H]2CC[C@H](N)C2)n2ncc(Cl)c2n1', 'IC50', '3.78 µM'),
  ('CCC(c1cc(N[C@H]2CC[C@H](N)C2)n2nccc2n1)C1CCC1 (stereo partly shown)', 'IC50', '> 10 µM'),
  ('N[C@H]1CC[C@H](Nc2cc([C@@H](F)C3CCC3)nc3ccnn23)C1 [Compound Z-41-P1]', 'IC50', '> 10 µM');

Recall and state the measured IC50 for CC(c1cc(NC2CCNC2)n2ncc(F)c2n1)C1CC1 (stereo not shown) . 6.39 µM

Give the reported IC50 for this compound. Cc1cnn2c(N[C@H]3CC[C@H](N)C3)cc(C(C)(C)C3CC3)nc12 > 10 µM

Recall and state the measured IC50 for C=CC(C)(C)c1cc(N[C@H]2CC[C@H](N)C2)n2nccc2n1 . > 10 µM

// Input: CC[C@H](c1cc(N[C@H]2CC[C@H](N)C2)n2nccc2n1)C1CC1 [Compound Z-28-P2] . Output its IC50 only. > 10 µM

Return value of IC50 for input CCC(c1cc(N[C@H]2CC[C@H](NC(=N)N)C2)n2nccc2n1)C1CC1 (stereo partly shown) , no commentary. > 10 µM

----------
Let's look at some molecules and their measured IC50.
# target.desc: CDK9/CycT (Homo sapiens (Human), UniProt P50750)
# assay: LANCE Ultra kinase activity inhibition assay, CDK9/CycT
# Format: biochemical
# test.settings: ATP 10 μM, highest compound concentration 1 μM
// return numeric value only (unit: µM, not printed)

Guide cases for IC50, answers given:
INSERT INTO assay_data (molecule, reported_value) VALUES
  ('CCC(c1cc(N[C@H]2CC[C@H](NC(=N)N)C2)n2nccc2n1)C1CC1 (some centres unmarked) [Compound Z-67]', 0.044),
  ('CC1(Cc2cc(N[C@H]3CC[C@H](N)C3)n3ncc(Cl)c3n2)CC1 [Compound Z-29]', 0.011);

Give IC50 for N[C@H]1CC[C@H](Nc2cc(C(C3CC3)C3CC3)nc3c(F)cnn23)C1 [Compound Z-15] tested on CDK9/CycT (Homo sapiens (Human), UniProt P50750). 0.005

GET IC50 where system = CDK9/CycT (Homo sapiens (Human), UniProt P50750) and item = Cc1cnn2c(N[C@H]3CC[C@H](N)C3)cc([C@@H](C)C3CC3)nc12 [Compound Z-32-P2] 0.056

GET IC50 | system: CDK9/CycT (Homo sapiens (Human), UniProt P50750) | item: CC(=O)N[C@H]1CC[C@H](Nc2cc(C(C)C3CC3)nc3c(Cl)cnn23)C1 (some centres unmarked) [Compound Z-63] 0.014

Provide the reported IC50 (system: CDK9/CycT (Homo sapiens (Human), UniProt P50750)) for CC(c1cc(N[C@H]2CC[C@H](N)C2)n2nccc2n1)(C1CC1)C1CC1 [Compound Z-22] 0.013

Would you please give the reported IC50 of CC(c1cc(N[C@H]2C[C@@H](N)C2)n2nccc2n1)C1CC1 (some centres unmarked) [Compound Z-74] with CDK9/CycT (Homo sapiens (Human), UniProt P50750)? 0.417

Give reported IC50 for CC(c1cc(NC2CCN(N)C2)n2ncc(Cl)c2n1)C1CC1 (centres unmarked) [Compound Z-47] (CDK9/CycT (Homo sapiens (Human), UniProt P50750)) 0.035

Find the measured IC50 of CC(=N)N[C@H]1CC[C@H](Nc2cc(C(C)C3CC3)nc3c(F)cnn23)C1 (some centres unmarked) [Compound Z-72] with CDK9/CycT (Homo sapiens (Human), UniProt P50750) as test system. 0.02

Give IC50; test system CDK9/CycT (Homo sapiens (Human), UniProt P50750); molecule N[C@H]1CC[C@H](Nc2cc(CC3CCC3)nc3ccnn23)C1 [Compound Z-50] 0.064

// fetch IC50; item: N[C@H]1CC[C@H](Nc2cc(C(F)C3CC3)nc3ccnn23)C1 (some centres unmarked) [Compound Z-53] ; system: CDK9/CycT (Homo sapiens (Human), UniProt P50750) 0.047

Report value: IC50, system: CDK9/CycT (Homo sapiens (Human), UniProt P50750), molecule: N[C@H]1CC[C@H](Nc2cc(CC3CC3)nc3ccnn23)C1 [Compound Z-3] 0.073

Consider the molecule COC[C@H](c1cc(N[C@H]2CC[C@H](N)C2)n2nccc2n1)C1CC1 [Compound Z-44] tested on CDK9/CycT (Homo sapiens (Human), UniProt P50750); state its IC50. 0.082

Enter measured IC50, system CDK9/CycT (Homo sapiens (Human), UniProt P50750), for the molecule shown: C=CC(C)(C)c1cc(N[C@H]2CC[C@H](N)C2)n2nccc2n1 [Compound Z-18] 0.033

Report value only: IC50, CDK9/CycT (Homo sapiens (Human), UniProt P50750), N[C@H]1CC[C@H](Nc2cc(C(F)C3CCC3)nc3ccnn23)C1 (some centres unmarked) [Compound Z-70] 0.023

Tell me its IC50 on CDK9/CycT (Homo sapiens (Human), UniProt P50750): CC(c1cc(N[C@H]2CC[C@H](NC(=N)N)C2)n2ncc(F)c2n1)C1CC1 (some centres unmarked) [Compound Z-71] 0.028

Given C[C@H](c1cc(N[C@H]2CC[C@H](N)C2)n2nccc2n1)C1CC1 [Compound Z-5-2] , report its IC50 on CDK9/CycT (Homo sapiens (Human), UniProt P50750). 0.007

Jot down IC50 (CDK9/CycT (Homo sapiens (Human), UniProt P50750)) of CC(=N)N[C@H]1CC[C@H](Nc2cc(C(C3CC3)C3CC3)nc3c(C(F)(F)F)cnn23)C1 [Compound Z-68] . 0.025

Provide measured IC50 on CDK9/CycT (Homo sapiens (Human), UniProt P50750) for Cc1cnn2c(N[C@H]3CC[C@H](N)C3)cc([C@H](C)C3CC3)nc12 [Compound Z-32-P1] please. 0.099

GET IC50 | system: CDK9/CycT (Homo sapiens (Human), UniProt P50750) | item: Cc1cnn2c(N[C@H]3CC[C@H](N)C3)cc([C@H](C)C3CCC3)nc12 (single isomer, unassigned) [Compound Z-38-P1] 0.04

Provide IC50, system CDK9/CycT (Homo sapiens (Human), UniProt P50750), entry CC(c1cc(N[C@H]2CC[C@H](NC(=N)N)C2)n2ncc(Cl)c2n1)C1CC1 (some centres unmarked) [Compound Z-65] 0.019

# lookup: CDK9/CycT (Homo sapiens (Human), UniProt P50750) IC50, key = CC[C@@H](c1cc(N[C@H]2CC[C@H](N)C2)n2nccc2n1)C1CC1 [Compound Z-28-P1] 0.006

Send back CDK9/CycT (Homo sapiens (Human), UniProt P50750) IC50 of N[C@H]1CC[C@H](Nc2cc([C@H](F)C3CCC3)nc3ccnn23)C1 [Compound Z-41-P2] only. 0.013

Report IC50 from CDK9/CycT (Homo sapiens (Human), UniProt P50750) testing of CC(c1cc(N[C@H]2CC[C@H](N)C2)n2nccc2n1)C1CCCC1 (some centres unmarked) [Compound Z-13] 0.018

Name the value of IC50 reported for CCC(c1cc(N[C@H]2CC[C@H](N)C2)n2ncc(C)c2n1)C1CC1 (some centres unmarked) [Compound Z-30] when tested on CDK9/CycT (Homo sapiens (Human), UniProt P50750). 0.01

Quote IC50 with test system CDK9/CycT (Homo sapiens (Human), UniProt P50750) for CCC(c1cc(N[C@H]2CC[C@H](N)C2)n2nccc2n1)C1CCC1 (some centres unmarked) [Compound Z-43] 0.056

Hello, the source for this data is patent US20240109898A1, in case you need it.
